assayed-target: UniProt:Q9UM07
Sequence (Q9UM07 whole entry): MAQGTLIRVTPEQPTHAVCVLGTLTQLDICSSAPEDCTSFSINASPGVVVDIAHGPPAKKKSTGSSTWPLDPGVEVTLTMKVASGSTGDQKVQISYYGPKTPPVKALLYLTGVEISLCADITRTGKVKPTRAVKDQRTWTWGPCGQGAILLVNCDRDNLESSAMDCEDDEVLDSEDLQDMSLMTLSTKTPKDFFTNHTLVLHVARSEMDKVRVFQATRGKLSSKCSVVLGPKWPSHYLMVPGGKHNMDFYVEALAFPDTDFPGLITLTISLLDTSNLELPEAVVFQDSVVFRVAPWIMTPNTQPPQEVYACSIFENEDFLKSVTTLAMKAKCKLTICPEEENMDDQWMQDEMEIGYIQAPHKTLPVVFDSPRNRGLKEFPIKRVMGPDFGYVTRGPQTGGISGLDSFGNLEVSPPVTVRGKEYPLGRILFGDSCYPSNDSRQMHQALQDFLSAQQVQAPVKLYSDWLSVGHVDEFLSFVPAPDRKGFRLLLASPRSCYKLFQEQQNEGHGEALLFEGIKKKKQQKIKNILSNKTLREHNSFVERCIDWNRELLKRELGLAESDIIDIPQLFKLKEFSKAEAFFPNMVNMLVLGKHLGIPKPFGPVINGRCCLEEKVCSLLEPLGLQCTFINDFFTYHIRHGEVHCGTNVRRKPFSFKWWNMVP
experiment-description: RFMS human PAD4 functional assay (rapid-fire mass spectrum)
experimental-parameters: 5 nM hPAD4 enzyme, 250 μM BAEE, 50 μM Calcium; 30 min preincubation, 90 min reaction at 37° C.
pIC50: −log10 of the molar value.
measurement-kind: pIC50

Example entries and their recorded answers appear below.
> print(dat)
                                   compound  measured.number
1  COc1cc(C(=O)N2CC3CCC2[C@@H]3N)cc2nc(-c3cc4ccccc4n3CC3CC3)n(Cc3cn[nH]n3)c12 (stereo partly drawn)             7.24
2  COc1cc(C(=O)N2CC3CCC2[C@@H]3N)cc2nc(-c3cc4ccccc4n3CC3CC3)n(CC3CN(C(=O)c4cnc(C#N)nc4)C3)c12 (stereo partly drawn)             7.14
3  N[C@@H]1C2CCC1N(C(=O)c1cc(F)c3c(c1)nc(-c1cc4cccnc4n1CC1CC1)n3CC1CN(C(=O)c3ccccc3)C1)C2 (stereo partly drawn)             7.44
4  COc1cc(C(=O)N2CC3CCC2[C@@H]3N)cc2nc(-c3cc4ccccc4n3CC3CC3)n(Cc3cnn(-c4cncnc4)c3)c12 (stereo partly drawn)             7.43
5  COc1cc(C(=O)N2CC3CCC2[C@@H]3N)cc2nc(-c3cc4cccnc4n3CC3CC3)n(CC3CN(C(=O)c4ccc(F)cc4)C3)c12 (stereo partly drawn)             7.37

a. COc1cc(C(=O)N2C[C@H]3CC[C@@H]2[C@@H]3N)cc2nc(-c3cc4cccnc4n3CC3CC3)n(C3CN(c4ccncn4)C3)c12
b. COc1cc(C(=O)N2C[C@H]3CC[C@@H]2[C@@H]3N)cc2nc(-c3cc4cccnc4n3CC3CC3)n(CC3CN(c4ccnc(S(C)(=O)=O)n4)C3)c12 [Example 18]
c. COc1cc(C(=O)N2C[C@H]3CC[C@@H]2[C@@H]3N)cc2nc(-c3cc4cccnc4n3CC3CC3)n(CC3CCN(C(=O)c4ccnc(F)c4)CC3)c12
d. COc1cc(C(=O)N2CC3CCC2[C@@H]3N)cc2nc(-c3cc4cccnc4n3CC3CC3)n([C@H]3C[C@@H](NC(C)=O)C3)c12 (stereo partly drawn)
List by increasing pIC50. # output: labels, in the requested order
d, a, c, b

Cited source for all entries: patent US12692254B2
